test system: HeLa Kyoto; test: solubility in G1/S (NP-40 vs SDS abundance) (log2 ratio); higher = more soluble; conditions: cell cycle stage: G1/S;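 further: HeLa Kyoto cells arrested at G1/S by double thymidine block, proteins quantified by TMT10plex mass spectrometry in mild NP-40 versus SDS extracts, three biological replicates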
PROPERTY_LABEL: solubility in G1/S (log2)
Output: the number by itself.

Below, 2 sequences whose answers are already recorded.
MLGGSLGSRLLRGVGGSHGRFGARGVREGGAAMAAGESMAQRMVWVDLEMTGLDIEKDQIIEMACLITDSDLNILAEGPNLIIKQPDELLDSMSDWCKEHHGKSGLTKAVKESTITLQQAEYEFLSFVRQQTPPGLCPLAGNSVHEDKKFLDKYMPQFMKHLHYRIIDVSTVKELCRRWYPEEYEFAPKKAASHRALDDISESIKELQFYRNNIFKKKIDEKKRKIIENGENEKTVS [REXO2] = 0.239
MAAAANSGSSLPLFDCPTWAGKPPPGLHLDVVKGDKLIEKLIIDEKKYYLFGRNPDLCDFTIDHQSCSRVHAALVYHKHLKRVFLIDLNSTHGTFLGHIRLEPHKPQQIPIDSTVSFGASTRAYTLREKPQTLPSAVKGDEKMGGEDDELKGLLGLPEEETELDNLTEFNTAHNKRISTLTIEEGNLDIQRPKRKRKNSRVTFSEDDEIINPEDVDPSVGRFRNMVQTAVVPVKKKRVEGPGSLGLEESGSRRMQNFAFSGGLYGGLPPTHSEAGSQPHGIHGTALIGGLPMPYPNLAPDVDLTPVVPSAVNMNPAPNPAVYNPEAVNEPKKKKYAKEAWPGKKPTPSLLI [PPP1R8] = 0.0809

Entry MAGPAWISKVSRLLGAFHNPKQVTRGFTGGVQTVTLIPGDGIGPEISAAVMKIFDAAKAPIQWEERNVTAIQGPGGKWMIPSEAKESMDKNKMGLKGPLKTPIAAGHPSMNLLLRKTFDLYANVRPCVSIEGYKTPYTDVNIVTIRENTEGEYSGIEHVIVDGVVQSIKLITEGASKRIAEFAFEYARNNHRSNVTAVHKANIMRMSDGLFLQKCREVAESCKDIKFNEMYLDTVCLNMVQDPSQFDVLVMPNLYGDILSDLCAGLIGGLGVTPSGNIGANGVAIFESVHGTAPDIAGKDMANPTALLLSAVMMLRHMGLFDHAARIEAACFATIKDGKSLTKDLGGNAKCSDFTEEICRRVKDLD [IDH3A] : reported solubility in G1/S (log2) = ?
0.45
